biological target: UniProt P34972; experiment: biochemical; format: binding; set-up: expressed in transfected cells; host or cells: CHO cells (membrane preparation); settings: versus 0.1 nM [3H]CP55,940; CHO cell membranes; mean ± SEM of three to five experiments; read-out: Ki ± SEM Human CB2
pKi: −log10 of the molar value.
compounds and their reported pKi

compound	pKi
CCc1ccc(C(=O)c2cn(CCCCCF)c3ccccc23)c2ccccc12	9.43
COc1cccc2c(C(=O)C3C4(C)CCC(C4)C3(C)C)c(C)n(CCN3CCOCC3)c12 (stereo not shown)	8.56
CC1(C)C(C(=O)c2nn(CCCCCF)c3ccccc23)C1(C)C	9.35
O=C(Oc1cccc2ccccc12)c1nn(CCCCCF)c2ccccc12	8.47

* * *

molecular target: CB2 receptor (Homo sapiens, UniProt P34972); assay: biochemical; type: binding; parameters: expressed in transfected cells; host or cells: CHO cells (membrane preparation); conditions: versus 0.1 nM [3H]CP55,940; CHO cell membranes; mean ± SEM of three to five experiments; read-out: Ki ± SEM Human CB2
Sequence (P34972 whole entry): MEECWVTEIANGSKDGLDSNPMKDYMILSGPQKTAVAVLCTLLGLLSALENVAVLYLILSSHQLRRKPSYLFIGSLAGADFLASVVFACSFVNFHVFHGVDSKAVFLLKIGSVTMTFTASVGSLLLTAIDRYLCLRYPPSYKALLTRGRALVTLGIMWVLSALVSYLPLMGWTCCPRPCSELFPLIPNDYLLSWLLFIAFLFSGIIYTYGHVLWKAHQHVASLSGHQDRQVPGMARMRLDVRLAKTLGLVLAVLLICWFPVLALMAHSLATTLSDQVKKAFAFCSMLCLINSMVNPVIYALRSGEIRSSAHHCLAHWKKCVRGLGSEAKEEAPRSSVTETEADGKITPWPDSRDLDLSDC

chemical.string	measurement.target	Ki (nM)
Cc1ccc(C(=O)c2cn(CCCCCF)c3ccccc23)c2ccccc12	CB2 receptor (Homo sapiens, UniProt P34972)	0.582
O=C(NCc1ccccc1)c1cn(CCCCCF)c2ccccc12	CB2 receptor (Homo sapiens, UniProt P34972)	430
CCCCCn1nc(C(=O)Nc2cccc3cccnc23)c2ccccc21	CB2 receptor (Homo sapiens, UniProt P34972)	12.7
CCCCCn1cc(C(=O)Nc2ccccc2)c2ccccc21	CB2 receptor (Homo sapiens, UniProt P34972)	275

* * *

Molecular target: human GPR18 (Homo sapiens)
Construct: β-galactosidase enzyme fragment (PathHunter complementation tag)
Sequence (Q14330 1-331): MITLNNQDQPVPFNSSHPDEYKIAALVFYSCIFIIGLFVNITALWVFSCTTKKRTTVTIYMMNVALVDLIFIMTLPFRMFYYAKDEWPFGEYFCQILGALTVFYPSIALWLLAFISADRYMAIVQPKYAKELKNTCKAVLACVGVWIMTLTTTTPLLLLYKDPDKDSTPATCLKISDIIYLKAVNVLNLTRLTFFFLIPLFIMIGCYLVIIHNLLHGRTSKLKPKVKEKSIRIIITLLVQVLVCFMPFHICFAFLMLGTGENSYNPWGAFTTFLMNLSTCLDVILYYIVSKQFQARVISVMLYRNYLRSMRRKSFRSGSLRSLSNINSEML
Assay: β-Arrestin recruitment assay (PathHunter) at GPR18
Assay type: cell-based
Settings: β-arrestin assay; percent in brackets beside IC50
recorded.metric: Human GPR18 % inhibition (%)

molecule	recorded.metric	readout.unit	reported
CC1(C)C(C(=O)c2cn(CCCC(F)(F)F)c3ccccc23)C1(C)C [Compound 41, XLR-12]	Human GPR18 % inhibition	%	13
O=C(Oc1cccc2ccccc12)c1cn(Cc2ccc(F)cc2)c2ccccc12 [Compound 20, FDU-PB-22]	Human GPR18 % inhibition	%	−4
O=C(Oc1cccc2ccccc12)c1nn(CCCCCF)c2ccccc12 [Compound 23, 5F-SDB-005]	Human GPR18 % inhibition	%	24
CCCCCn1cc(C(=O)Nc2ccccc2)c2ccccc21 [Compound 14, SDB-006-N-phenyl-analog]	Human GPR18 % inhibition	%	−13

* * *

target: human GPR18 (Homo sapiens, UniProt Q14330); construct: β-galactosidase enzyme fragment (PathHunter complementation tag); experiment: β-Arrestin recruitment assay (PathHunter) at GPR18; assay type: cell-based; conditions: β-arrestin assay; percent in brackets beside IC50

compound	measurement.target	Human GPR18 % inhibition / %
CCCCCn1nc(C(=O)Oc2cccc3ccccc23)c2ccccc21 [Compound 22, SDB-005]	human GPR18 (Homo sapiens, UniProt Q14330)	24
CN1CCCCC1Cn1cc(C(=O)C2C(C)(C)C2(C)C)c2ccccc21 (centres unmarked) [Compound 43, AB005]	human GPR18 (Homo sapiens, UniProt Q14330)	−2
Cc1c(C(=O)C2C(C)(C)C2(C)C)c2ccccc2n1CCCCCF [Compound 47, M-144]	human GPR18 (Homo sapiens, UniProt Q14330)	67
CN1CCCCC(Cn2cc(C(=O)C3C(C)(C)C3(C)C)c3ccccc32)C1 (stereo not drawn) [Compound 44, AB005-azepane-isomer]	human GPR18 (Homo sapiens, UniProt Q14330)	−6
CC1(C)C(C(=O)c2nn(CCCCCF)c3ccccc23)C1(C)C [Compound 40, FAB-144]	human GPR18 (Homo sapiens, UniProt Q14330)	57
O=C(Nc1cccc2ccccc12)c1nn(CCCCCF)c2ccccc12 [Compound 9, 5F-MN-18]	human GPR18 (Homo sapiens, UniProt Q14330)	23
CCCCCn1cc(C(=O)NC23CC4CC(CC(C4)C2)C3)c2ccccc21 [Compound 15, APICA]	human GPR18 (Homo sapiens, UniProt Q14330)	44
CCCCCn1nc(C(=O)Nc2cccc3ccccc23)c2ccccc21 [Compound 8, MN-18]	human GPR18 (Homo sapiens, UniProt Q14330)	37

* * *

biological target: CB2 receptor (Homo sapiens, UniProt P34972); test: biochemical; type: binding; design: expressed in transfected cells; host or cells: CHO cells (membrane preparation); conditions: versus 0.1 nM [3H]CP55,940; CHO cell membranes; mean ± SEM of three to five experiments; read-out: Ki ± SEM Human CB2
pKi: −log10 of the molar value.
Rule: pKi under 9 gives Not fulfilled, otherwise Fulfilled.

molecule	measurement.target	assigned.label
O=C(NC12CC3CC(CC(C3)C1)C2)c1nn(CCCCCF)c2ccccc12 [Compound 17, 5F-APINACA (5F-AKB48)]	CB2 receptor (Homo sapiens, UniProt P34972)	Fulfilled
CCCCCn1nc(C(=O)c2cccc3ccccc23)c2ccccc21 [Compound 28, THJ018]	CB2 receptor (Homo sapiens, UniProt P34972)	Not fulfilled

* * *

compounds and their reported IC50
biological target: human GPR55 (Homo sapiens); construct: β-galactosidase enzyme fragment (PathHunter complementation tag); assay: β-Arrestin recruitment assay (PathHunter) at GPR55; assay type: cell-based; conditions: Human GPR55 IC50, β-arrestin assay, antagonist mode
recorded.metric: IC50

compound	recorded.metric	reported
CCCCCn1nc(C(=O)Oc2cccc3ccccc23)c2ccccc21 [Compound 22, SDB-005]	IC50	> 10 µM
O=C(Oc1cccc2cccnc12)c1cn(CC2CCCCC2)c2ccccc12 [Compound 27, BB-22]	IC50	> 10 µM
O=C(Nc1cccc2ccccc12)c1cn(CCCCCF)c2ccccc12 [Compound 5, 5F-NNEI]	IC50	> 10 µM
O=C(Nc1ccc2ccccc2c1)c1cn(CCCCCF)c2ccccc12 [Compound 7, 5F-NNEI-2-naphthyl-isomer]	IC50	> 10 µM
Cc1ccc(C(=O)c2cn(CCCC(C)F)c3ccccc23)c2ccccc12 (stereo not drawn) [Compound 32, MAM-2201-4-fluoropentyl-isomer]	IC50	3.07 µM
CCCCCn1cc(C(=O)C2C(C)(C)C2(C)C)c2ccccc21 [Compound 37, UR-144]	IC50	6.7 µM
O=C(Oc1cccc2ccccc12)c1cn(Cc2ccc(F)cc2)c2ccccc12 [Compound 20, FDU-PB-22]	IC50	> 10 µM
O=C(Oc1cccc2ccccc12)c1nn(CCCCCF)c2ccccc12 [Compound 23, 5F-SDB-005]	IC50	> 10 µM
O=C(Oc1cccc2cccnc12)c1cn(Cc2ccc(F)cc2)c2ccccc12 [Compound 26, FUB-PB-22]	IC50	> 10 µM
CCc1ccc(C(=O)c2cn(CCCCCF)c3ccccc23)c2ccccc12 [Compound 31, EAM-2201]	IC50	1.86 µM
O=C(Nc1cccc2cccnc12)c1nn(CCCCCF)c2ccccc12 [Compound 11, 5F-THJ]	IC50	> 10 µM
CN1CCCCC1Cn1cc(C(=O)C2C(C)(C)C2(C)C)c2ccccc21 (stereo not shown) [Compound 43, AB005]	IC50	> 10 µM
CCCCCn1cc(C(=O)NC23CC4CC(CC(C4)C2)C3)c2ccccc21 [Compound 15, APICA]	IC50	4.77 µM
O=C(NC12CC3CC(CC(C3)C1)C2)c1cn(CCCCCF)c2ccccc12 [Compound 16, STS-135 (5F-APICA)]	IC50	3.41 µM
O=C(Oc1cccc2cccnc12)c1cn(CCCCCF)c2ccccc12 [Compound 25, 5F-PB-22]	IC50	> 10 µM
CC1(C)C(C(=O)c2nn(CCCCCF)c3ccccc23)C1(C)C [Compound 40, FAB-144]	IC50	~10 µM

* * *

target: human GPR55 (Homo sapiens, UniProt Q9Y2T6); construct: β-galactosidase enzyme fragment (PathHunter complementation tag); experiment: β-Arrestin recruitment assay (PathHunter) at GPR55; assay type: cell-based; conditions: β-arrestin assay; percent in brackets beside IC50
Sequence (Q9Y2T6 whole entry, the tested form may be a part): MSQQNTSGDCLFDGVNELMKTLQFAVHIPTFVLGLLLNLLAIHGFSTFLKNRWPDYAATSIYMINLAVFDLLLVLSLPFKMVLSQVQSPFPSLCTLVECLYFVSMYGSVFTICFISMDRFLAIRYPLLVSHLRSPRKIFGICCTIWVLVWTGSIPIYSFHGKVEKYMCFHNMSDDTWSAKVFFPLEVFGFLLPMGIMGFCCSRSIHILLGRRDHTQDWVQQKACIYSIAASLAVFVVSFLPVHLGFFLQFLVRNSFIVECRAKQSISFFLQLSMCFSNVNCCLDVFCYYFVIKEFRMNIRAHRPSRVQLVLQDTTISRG

compound	measurement.target	Human GPR55 % inhibition, %
O=C(Nc1ccc2ccccc2c1)c1cn(CCCCCF)c2ccccc12 [Compound 7, 5F-NNEI-2-naphthyl-isomer]	human GPR55 (Homo sapiens, UniProt Q9Y2T6)	20
CCCCCn1cc(C(=O)Oc2cccc3cccnc23)c2ccccc21 [Compound 24, PB-22]	human GPR55 (Homo sapiens, UniProt Q9Y2T6)	-12
O=C(Oc1cccc2ccccc12)c1cn(Cc2ccc(F)cc2)c2ccccc12 [Compound 20, FDU-PB-22]	human GPR55 (Homo sapiens, UniProt Q9Y2T6)	30
O=C(Oc1cccc2ccccc12)c1nn(CCCCCF)c2ccccc12 [Compound 23, 5F-SDB-005]	human GPR55 (Homo sapiens, UniProt Q9Y2T6)	47
CC1(C)C(C(=O)c2nn(CCCCCF)c3ccccc23)C1(C)C [Compound 40, FAB-144]	human GPR55 (Homo sapiens, UniProt Q9Y2T6)	77
CN1CCCCC1Cn1cc(C(=O)C2C(C)(C)C2(C)C)c2ccccc21 (centres unmarked) [Compound 43, AB005]	human GPR55 (Homo sapiens, UniProt Q9Y2T6)	39
CC1(C)C(C(=O)c2cn(Cc3ccc(F)cc3)c3ccccc23)C1(C)C [Compound 42, FUB-144]	human GPR55 (Homo sapiens, UniProt Q9Y2T6)	62
O=C(Oc1cccc2cccnc12)c1cn(CCCCCF)c2ccccc12 [Compound 25, 5F-PB-22]	human GPR55 (Homo sapiens, UniProt Q9Y2T6)	-10
O=C(Nc1cccc2ccccc12)c1cn(CCCCCF)c2ccccc12 [Compound 5, 5F-NNEI]	human GPR55 (Homo sapiens, UniProt Q9Y2T6)	−8
CCCCCn1cc(C(=O)Nc2ccccc2)c2ccccc21 [Compound 14, SDB-006-N-phenyl-analog]	human GPR55 (Homo sapiens, UniProt Q9Y2T6)	1
O=C(c1cn(CCCCCF)c2ccccc12)C12CC3CC(CC(C3)C1)C2 [Compound 36, 5F-AB001]	human GPR55 (Homo sapiens, UniProt Q9Y2T6)	48
CN1CCCCC(Cn2cc(C(=O)C3C(C)(C)C3(C)C)c3ccccc32)C1 (stereo not drawn) [Compound 44, AB005-azepane-isomer]	human GPR55 (Homo sapiens, UniProt Q9Y2T6)	18
CCCCCn1cc(C(=O)C23CC4CC(CC(C4)C2)C3)c2ccccc21 [Compound 35, AB001]	human GPR55 (Homo sapiens, UniProt Q9Y2T6)	56
Cc1c(C(=O)C2C(C)(C)C2(C)C)c2ccccc2n1CCCCCF [Compound 47, M-144]	human GPR55 (Homo sapiens, UniProt Q9Y2T6)	86
O=C(NCc1ccccc1)c1cn(CCCCCF)c2ccccc12 [Compound 13, 5F-SDB-006]	human GPR55 (Homo sapiens, UniProt Q9Y2T6)	11
CCCCCn1cc(C(=O)Nc2cccc3ccccc23)c2ccccc21 [Compound 4, NNEI]	human GPR55 (Homo sapiens, UniProt Q9Y2T6)	30
CCCCCn1cc(C(=O)NCc2ccccc2)c2ccccc21 [Compound 12, SDB-006]	human GPR55 (Homo sapiens, UniProt Q9Y2T6)	36
